Experiment: Rat oral pharmacokinetics (plasma)
Format: in vivo
Details: male, CD Sprague Dawley, 20-30 μmol/kg, mean n = 3, read-out: Cmax

# compound string, Cmax / µM
measured = [
    ("OCCOc1cccc(CN2CCC[C@@H](Nc3ccc4[nH]ncc4c3)C2)c1", 2.1),
    ("c1cc2cc(CN3CCC[C@@H](Nc4ccc5[nH]ncc5c4)C3)ccc2o1", 5.61),
    ("OCCOc1cccc(CN2CC[C@@H](Nc3cccc4cnccc34)C2)c1", 0.783),
    ("OCCn1ccc2ccc(CN3CCC[C@@H](Nc4ccc5[nH]ncc5c4)C3)cc21", 0.209),
    ("CSc1ccc(CN2CCC[C@@H](Nc3ccc4[nH]ncc4c3)C2)cc1", 0.735),
    ("NC(=O)Cn1ccc2ccc(CN3CCC[C@H](Nc4ccc5[nH]ncc5c4)C3)cc21", 0.544),
    ("CCS(=O)(=O)Nc1cccc(CN2CCC[C@@H](Nc3ccc4[nH]ncc4c3)C2)c1", 2.04),
    ("CS(=O)(=O)Nc1cccc(CN2CC[C@@H](Nc3cccc4cnccc34)C2)c1", 1.04),
    ("CCS(=O)(=O)Nc1cccc(CN2CCC[C@H](Nc3ccc4[nH]ncc4c3)C2)c1", 0.415),
    ("Cc1ccc(CN2CCC[C@H](Nc3cccc4cnccc34)C2)cc1", 0.223),
]

###

Biological target: ROCK2 (Homo sapiens)
Construct: purchased Upstate/Chemicon 14-451
Sequence (O75116 11-552 limits assumed): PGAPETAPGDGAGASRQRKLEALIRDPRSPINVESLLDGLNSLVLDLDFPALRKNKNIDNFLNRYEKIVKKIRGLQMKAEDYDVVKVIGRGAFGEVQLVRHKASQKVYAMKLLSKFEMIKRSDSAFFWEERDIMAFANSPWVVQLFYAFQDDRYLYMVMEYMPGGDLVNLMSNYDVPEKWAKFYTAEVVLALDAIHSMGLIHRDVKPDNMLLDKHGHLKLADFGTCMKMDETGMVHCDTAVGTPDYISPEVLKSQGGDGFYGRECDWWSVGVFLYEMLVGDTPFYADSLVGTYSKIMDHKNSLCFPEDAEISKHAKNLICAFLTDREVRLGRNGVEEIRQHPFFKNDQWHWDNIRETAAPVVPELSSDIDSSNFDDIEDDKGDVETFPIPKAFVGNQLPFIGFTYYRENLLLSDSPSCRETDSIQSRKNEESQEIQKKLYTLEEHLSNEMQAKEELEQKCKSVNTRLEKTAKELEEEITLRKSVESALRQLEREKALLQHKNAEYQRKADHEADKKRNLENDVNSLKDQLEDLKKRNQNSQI
Test: Rho kinase inhibition assay (IMAP fluorescence polarization), ROCK2;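 further: kinase reaction started with 10 µM ATP and run 60 min at room temperature, then phosphorylated substrate captured on IMAP beads for 30 min and fluorescence polarization read in mP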
Format: biochemical
Conditions: 10 μM ATP; read-out: ROCK2 Ki, Avg
pKi: −log10 of the molar value.

# compound, pKi
measured = [
    ("CCc1ccc(CN2CCC[C@H](Nc3ccc4[nH]ncc4c3)C2)cc1 [Compound 1.154]", 8.18),
    ("c1cc(N[C@@H]2CCN(Cc3ccncn3)C2)c2ccncc2c1 [Compound 2.083]", 6.07),
    ("C#Cc1ccc(CN2CCC[C@H](Nc3ccc4[nH]ncc4c3)C2)cc1 [Compound 1.077]", 7.95),
    ("c1cc(C2CC2)ccc1CN1CCC[C@@H](Nc2ccc3[nH]ncc3c2)C1 [Compound 1.206]", 8.04),
    ("Oc1cccc(CN2CCC[C@@H](Nc3ccc4[nH]ncc4c3)C2)c1 [Compound 1.145]", 8.19),
    ("Cc1ccc(CN2CC[C@@H](Nc3cccc4cnccc34)C2)cc1 [Compound 2.025]", 8.54),
    ("CC(C)c1ccc(CN2CCC[C@H](Nc3ccc4[nH]ncc4c3)C2)cc1 [Compound 1.180]", 7.64),
    ("CS(=O)(=O)Nc1cc(CN2CCC[C@H](Nc3ccc4[nH]ncc4c3)C2)ccc1Cl [Compound 1.213]", 8.52),
    ("N#Cc1cccc(CN2CCC(Nc3cccc4cnccc34)C2)c1 (centres unmarked) [Compound 2.007]", 6.75),
    ("COc1ccc(CN2CC[C@@H](Nc3cccc4cnccc34)C2)cc1 [Compound 2.047]", 8.15),
    ("Cc1ccc(CN2CC[C@@H](Nc3ccc4[nH]ncc4c3)C2)cc1 [Compound 1.242]", 7.76),
    ("CSc1ccc(CN2CCC[C@@H](Nc3ccc4[nH]ncc4c3)C2)cc1 [Compound 1.074]", 8.39),
    ("FC(F)(F)c1ccc(CN2CCC[C@H](Nc3ccc4[nH]ncc4c3)C2)cc1 [Compound 1.167]", 7.73),
    ("Cc1ccc(CN2CCC[C@@H](Nc3ccc4[nH]ncc4c3)C2)cc1 [Compound 1.133]", 8.37),
    ("Cc1ccc(CN2CC[C@@H](Nc3cccc4cnccc34)C2)cc1OCC(=O)OC(C)(C)C [Compound 2.071]", 7.92),
    ("NS(=O)(=O)c1ccc2nc(CN3CC[C@@H](Nc4cccc5cnccc45)C3)[nH]c2c1 [Compound 2.087]", 7.23),
    ("C[C@@H](O)COc1cccc(CN2CCC[C@@H](Nc3ccc4[nH]ncc4c3)C2)c1 [Compound 1.116]", 7.31),
]
